System: BJ
Test description: Cytotoxicity in human BJ cells assessed as reduction in cell viability incubated for 72 hrs by calcein AM cytotoxicity assay
Assay type: functional, cell-based
Test settings: Homo sapiens, BJ, 72 h
pIC50: −log10 of the molar value.
Reported metric: pIC50

record_smiles=CC(=O)OC[C@H]1O[C@@H](OC(=O)[C@@]23CC[C@]4(C)[C@H](CC[C@@H]5[C@@]6(C)CC[C@H](OC(C)=O)C(C)(C)[C@@H]6CC[C@]54C)C2=C(C(C)C)C(=O)C3)[C@H](OC(C)=O)[C@@H](OC(C)=O)[C@@H]1OC(C)=O reported_metric=pIC50 recorded_result="< 4.30"
record_smiles=C=C(C)[C@@H]1CC[C@]2(C(=O)O[C@@H]3O[C@H](COC(C)=O)[C@@H](OC(C)=O)[C@H](OC(C)=O)[C@H]3OC(C)=O)CC[C@]3(C)[C@H](CC[C@@H]4[C@@]5(C)CC[C@H](O)C(C)(C)[C@@H]5CC[C@]43C)[C@@H]12 reported_metric=pIC50 recorded_result="< 4.30"
record_smiles=CC(=O)OC[C@@]1(C(=O)OCCN2CCCC2)CC[C@]2(C)[C@H](CC[C@@H]3[C@@]4(C)CC[C@H](OC(C)=O)C(C)(C)[C@@H]4CC[C@]32C)[C@@H]1O reported_metric=pIC50 recorded_result=4.85
record_smiles=CC(=O)O[C@H]1CC[C@]2(C)[C@H]3CC[C@@H]4C5=C(C(C)C)C(=O)C[C@]5(C(=O)OCC(=O)O)CC[C@@]4(C)[C@]3(C)CC[C@H]2C1(C)C reported_metric=pIC50 recorded_result="< 4.30"

* * *

Test system: MCF7
Test description: Cytotoxicity in human MCF7 cells assessed as reduction in cell viability incubated for 72 hrs by calcein AM cytotoxicity assay
Format: functional, cell-based
Test settings: Homo sapiens, MCF7, 72 h
pIC50: −log10 of the molar value.
As shown below, each of these compounds has a reported pIC50 value.
Reported metric: pIC50

record_smiles=C=C(C)[C@@H]1CC[C@]2(C(=O)OCCN3CCOCC3)CC[C@]3(C)[C@H](CC[C@@H]4[C@@]5(C)CC[C@H](O)C(C)(C)[C@@H]5CC[C@]43C)[C@@H]12 reported_metric=pIC50 relation_symbol=< recorded_result=4.30
record_smiles=CC(C)[C@@H]1CC[C@]2(C(=O)OCC(=O)OCc3ccccc3)CC[C@]3(C)[C@H](CC[C@@H]4[C@@]5(C)CC[C@H](O)C(C)(C)[C@@H]5CC[C@]43C)[C@@H]12 reported_metric=pIC50 relation_symbol=< recorded_result=4.30
record_smiles=CC(=O)OC[C@@]1(C(=O)OCCN2CCCC2)CC[C@]2(C)[C@H](CC[C@@H]3[C@@]4(C)CC[C@H](OC(C)=O)C(C)(C)[C@@H]4CC[C@]32C)[C@@H]1O reported_metric=pIC50 relation_symbol== recorded_result=5.00
record_smiles=CC(C)[C@@H]1CC[C@]2(C(=O)O[C@@H]3O[C@H](CO)[C@H](O)[C@H](O)[C@H]3O)CC[C@]3(C)[C@H](CC[C@@H]4[C@@]5(C)CC[C@H](O)C(C)(C)[C@@H]5CC[C@]43C)[C@@H]12 reported_metric=pIC50 relation_symbol=< recorded_result=4.30
record_smiles=CC(C)[C@@H]1CC[C@]2(C(=O)OCCN3CCCC3)CC[C@]3(C)[C@H](CC[C@@H]4[C@@]5(C)CC[C@H](O)C(C)(C)[C@@H]5CC[C@]43C)[C@@H]12 reported_metric=pIC50 relation_symbol== recorded_result=4.99
record_smiles=CC(=O)OC[C@H]1O[C@@H](OC(=O)[C@]2(COC(C)=O)CC[C@]3(C)[C@H](CC[C@@H]4[C@@]5(C)CC[C@H](OC(C)=O)C(C)(C)[C@@H]5CC[C@]43C)[C@@H]2O)[C@H](OC(C)=O)[C@@H](OC(C)=O)[C@@H]1OC(C)=O reported_metric=pIC50 relation_symbol=< recorded_result=4.30
record_smiles=CC(C)[C@@H]1CC[C@]2(C(=O)OCCBr)CC[C@]3(C)[C@H](CC[C@@H]4[C@@]5(C)CC[C@H](O)C(C)(C)[C@@H]5CC[C@]43C)[C@@H]12 reported_metric=pIC50 relation_symbol== recorded_result=4.34
record_smiles=CC(=O)OC[C@@]1(C(=O)OCCN2CCCCC2)CC[C@]2(C)[C@H](CC[C@@H]3[C@@]4(C)CC[C@H](OC(C)=O)C(C)(C)[C@@H]4CC[C@]32C)[C@@H]1O reported_metric=pIC50 relation_symbol== recorded_result=4.57
record_smiles=CC(=O)OC[C@H]1O[C@@H](OC(=O)[C@@]23CC[C@]4(C)[C@H](CC[C@@H]5[C@@]6(C)CC[C@H](OC(C)=O)C(C)(C)[C@@H]6CC[C@]54C)C2=C(C(C)C)C(=O)C3)[C@H](OC(C)=O)[C@@H](OC(C)=O)[C@H]1OC(C)=O reported_metric=pIC50 relation_symbol== recorded_result=5.43
record_smiles=COCCOC(=O)[C@]1(COC(C)=O)CC[C@]2(C)[C@H](CC[C@@H]3[C@@]4(C)CC[C@H](OC(C)=O)C(C)(C)[C@@H]4CC[C@]32C)C1=O reported_metric=pIC50 relation_symbol=< recorded_result=4.30
record_smiles=C=C(C)[C@@H]1CC[C@]2(C(=O)O[C@@H]3O[C@H](CO)[C@H](O)[C@H](O)[C@H]3O)CC[C@]3(C)[C@H](CC[C@@H]4[C@@]5(C)CC[C@H](O)C(C)(C)[C@@H]5CC[C@]43C)[C@@H]12 reported_metric=pIC50 relation_symbol=< recorded_result=4.30
record_smiles=CC(=O)OC[C@H]1O[C@@H](OC(=O)[C@]23CC[C@@H](C(C)C)[C@@H]2[C@H]2CC[C@@H]4[C@@]5(C)CC[C@H](O)C(C)(C)[C@@H]5CC[C@@]4(C)[C@]2(C)CC3)[C@H](OC(C)=O)[C@@H](OC(C)=O)[C@@H]1OC(C)=O reported_metric=pIC50 relation_symbol== recorded_result=4.86
record_smiles=CC(=O)OC[C@@]1(C(=O)OCC(=O)OCc2ccccc2)CC[C@]2(C)[C@H](CC[C@@H]3[C@@]4(C)CC[C@H](OC(C)=O)C(C)(C)[C@@H]4CC[C@]32C)C1=O reported_metric=pIC50 relation_symbol=< recorded_result=4.30
record_smiles=CC(=O)OC[C@@]1(C(=O)OCCBr)CC[C@]2(C)[C@H](CC[C@@H]3[C@@]4(C)CC[C@H](OC(C)=O)C(C)(C)[C@@H]4CC[C@]32C)C1=O reported_metric=pIC50 relation_symbol=< recorded_result=4.30

Measured values drawn from ChEMBL document CHEMBL4190365 for this set.
